Molecular target: UniProtKB P19327
Sequence (P19327 whole entry): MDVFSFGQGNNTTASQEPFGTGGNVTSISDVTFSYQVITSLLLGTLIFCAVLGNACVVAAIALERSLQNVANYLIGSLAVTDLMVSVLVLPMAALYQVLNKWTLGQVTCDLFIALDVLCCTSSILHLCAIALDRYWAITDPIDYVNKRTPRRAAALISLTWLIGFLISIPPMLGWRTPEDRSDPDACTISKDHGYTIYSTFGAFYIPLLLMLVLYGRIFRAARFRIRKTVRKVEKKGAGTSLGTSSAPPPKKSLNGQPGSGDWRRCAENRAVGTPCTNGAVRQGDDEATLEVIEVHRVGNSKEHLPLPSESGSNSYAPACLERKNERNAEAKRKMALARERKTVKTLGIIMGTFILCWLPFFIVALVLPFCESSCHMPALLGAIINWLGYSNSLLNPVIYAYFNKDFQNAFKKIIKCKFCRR
Assay: Binding to the 5-HT1A receptor (displacement of [3H]8-OH-DPAT)
Set-up: Brains from male Sprague-Dawley 180-200 g rats; tissue Iffa Credo, France (animals); host or cells: rat brain cortex; species or system rat (male Sprague-Dawley), brain cortex
Conditions: read-out: pKi 5-HT1A (converted)
Structures can show the parent of a compound that is named as a salt.
Endpoint label: Ki (nM)

I = Cn1ncc(OCC[C@H]2CC[C@@H]3CN(c4ncccn4)CCN3C2)nc1=O (single isomer, unassigned) [Compound 26]
II = Cn1ncc(OCCCCN2CCN(c3cccc(Cl)c3)CC2)nc1=O [Compound 16, fumarate]
Problem: Return label of the item with the larger Ki. Candidates: I , II . Choose, then provide that item's label.
Solution: I

I = Cn1ncc(OCCCCN2CCN(c3ncccn3)CC2)nc1=O [Compound 1]
II = Cn1ncc(OCCCCN2CCN(c3nccc(Cl)n3)CC2)nc1=O [Compound 6]
Problem: Return label of the item with the larger Ki. Candidates: I , II . Choose, then provide that item's label.
Solution: I
(I: 0.676 nM, II: 0.209 nM)
